Target: PAK4 (human) (UniProt O96013)
Sequence (O96013 whole entry, looked up): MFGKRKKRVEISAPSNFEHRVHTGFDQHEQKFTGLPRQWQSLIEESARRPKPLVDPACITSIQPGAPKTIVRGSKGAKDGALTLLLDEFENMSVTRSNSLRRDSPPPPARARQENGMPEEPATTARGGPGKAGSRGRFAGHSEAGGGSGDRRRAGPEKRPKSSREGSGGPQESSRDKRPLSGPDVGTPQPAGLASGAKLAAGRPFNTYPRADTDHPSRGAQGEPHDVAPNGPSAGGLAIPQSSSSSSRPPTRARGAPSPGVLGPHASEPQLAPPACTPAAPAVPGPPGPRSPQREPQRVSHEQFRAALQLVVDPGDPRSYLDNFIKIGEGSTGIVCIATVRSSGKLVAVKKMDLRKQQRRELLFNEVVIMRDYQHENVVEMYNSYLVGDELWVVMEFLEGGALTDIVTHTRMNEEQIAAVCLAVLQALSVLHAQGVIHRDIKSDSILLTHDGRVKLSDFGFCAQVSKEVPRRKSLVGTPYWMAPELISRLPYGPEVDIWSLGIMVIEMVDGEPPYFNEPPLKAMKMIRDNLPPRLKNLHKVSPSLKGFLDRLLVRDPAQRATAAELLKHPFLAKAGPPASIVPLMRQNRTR
Assay: radiometric filter-binding kinase assay
Conditions: compound 1.0 µM
measured attribute: residual activity (%)

compound: CNC(=O)C1[C@H]2O[C@@](C)([C@@H]1N)n1c3ccccc3c3c4c(c5c6ccccc6n2c5c31)C(=O)NC4 (stereo not given in full)
measured attribute: residual activity
result number: 7
--
compound: Cc1cc(NC(=O)c2cccc(NC(=O)/C=C/CN(C)C)c2)ccc1Nc1nccc(-c2cccnc2)n1
measured attribute: residual activity
result number: 78
--
compound: Nc1cccc2c1CN(C1CCC(=O)NC1=O)C2=O (stereo not given)
measured attribute: residual activity
result number: 102
--
compound: C=C1C(=O)OC2C1CC/C(C)=C/CCC1(C)OC21 (stereo not given)
measured attribute: residual activity
result number: 93
--
compound: O=C(NOCC(O)CO)c1ccc(F)c(F)c1Nc1ccc(I)cc1Cl (stereo not given)
measured attribute: residual activity
result number: 98

I = O=c1c(O)c(-c2ccc(O)c(O)c2)oc2cc(O)c(O)c(O)c12
II = CCNc1nc(Nc2cc(F)c(C(=O)N3CCOCC3)cc2OC)ncc1C(F)(F)F
Could you kindly indicate whether I or II has the higher residual activity value? Indicate which entry you chose by stating its label.
II

* * *

Molecular target: UniProt:Q92630
Sequence (Q92630 whole entry, looked up): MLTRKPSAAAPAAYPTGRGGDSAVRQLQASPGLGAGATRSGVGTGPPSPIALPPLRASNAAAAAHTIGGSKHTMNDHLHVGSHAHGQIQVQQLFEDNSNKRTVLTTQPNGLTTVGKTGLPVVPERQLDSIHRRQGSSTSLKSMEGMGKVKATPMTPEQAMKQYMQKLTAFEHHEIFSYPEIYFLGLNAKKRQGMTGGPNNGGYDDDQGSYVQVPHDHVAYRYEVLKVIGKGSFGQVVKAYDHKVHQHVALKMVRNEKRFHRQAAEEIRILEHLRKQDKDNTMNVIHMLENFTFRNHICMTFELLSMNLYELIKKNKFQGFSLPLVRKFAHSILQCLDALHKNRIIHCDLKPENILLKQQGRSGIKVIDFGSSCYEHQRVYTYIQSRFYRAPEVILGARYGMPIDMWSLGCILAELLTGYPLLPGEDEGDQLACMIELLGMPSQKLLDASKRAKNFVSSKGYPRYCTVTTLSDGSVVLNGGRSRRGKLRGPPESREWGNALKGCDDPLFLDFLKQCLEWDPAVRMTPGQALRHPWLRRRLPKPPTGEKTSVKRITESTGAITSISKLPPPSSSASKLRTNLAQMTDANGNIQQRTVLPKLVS
Assay: radiometric filter-binding kinase assay
Conditions: compound 0.1 µM
measured attribute: residual activity (%)

A selection of reference data follows.
molecule: CN1CCN(CCOc2cc(OC3CCOCC3)c3c(Nc4c(Cl)ccc5c4OCO5)ncnc3c2)CC1
measurement units: %
residual activity: 109
--
molecule: COc1cc(O)c2c(c1)[C@H]1OC1C[C@H](O)[C@H](O)C(=O)/C=C\C[C@H](C)OC2=O (stereo partly drawn)
measurement units: %
residual activity: 105
--
molecule: Cc1cccc(-c2nn(C(=S)Nc3ccccc3)cc2-c2ccnc3ccccc23)n1
measurement units: %
residual activity: 100
--
molecule: CNC(=O)C1[C@H]2O[C@@](C)([C@@H]1N)n1c3ccccc3c3c4c(c5c6ccccc6n2c5c31)C(=O)NC4 (stereo partly drawn)
measurement units: %
residual activity: 9
--
molecule: CC1=C(CO)C(=O)O[C@@H]([C@@H](C)[C@H]2CC[C@H]3[C@@H]4C[C@H]5O[C@]56[C@@H](O)C=CC(=O)[C@]6(C)C4CC[C@]23C)C1 (stereo partly drawn)
measurement units: %
residual activity: 97

1 = O=C(Nc1ccccc1-c1cn2c(CN3CCNCC3)csc2n1)c1cnc2ccccc2n1
2 = C/C(=C1/C(=O)Nc2ccc(NC(N)=O)cc21)c1ccc[nH]1
In terms of reported residual activity, does 1 or 2 have the smaller number? Indicate which entry you chose by stating its label.
2

* * *

Biological target: MAPKAPK2 (human) (UniProt P49137)
Sequence (P49137 whole entry, looked up): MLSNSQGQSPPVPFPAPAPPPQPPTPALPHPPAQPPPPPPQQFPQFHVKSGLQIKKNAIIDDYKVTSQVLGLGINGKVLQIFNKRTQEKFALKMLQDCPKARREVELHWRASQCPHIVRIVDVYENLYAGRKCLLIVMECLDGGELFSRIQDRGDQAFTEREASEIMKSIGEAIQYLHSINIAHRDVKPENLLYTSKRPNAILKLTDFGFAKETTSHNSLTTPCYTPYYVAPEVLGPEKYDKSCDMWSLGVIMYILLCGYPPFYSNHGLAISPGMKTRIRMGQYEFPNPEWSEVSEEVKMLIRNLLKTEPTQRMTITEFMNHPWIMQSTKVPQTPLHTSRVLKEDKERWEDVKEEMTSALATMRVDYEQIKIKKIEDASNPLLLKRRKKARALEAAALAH
Assay: radiometric filter-binding kinase assay
Conditions: compound 0.1 µM
measured attribute: residual activity (%)

molecule: COc1ccc(N(C(=O)Nc2c(C)cccc2C)c2cc(Nc3ccc(N4CCN(C)CC4)cc3)ncn2)c(OC)c1
residual activity / %: 100
--
molecule: CCCCCc1ccc(/C=C/[C@H](O)[C@@H](CO)NC)cc1
residual activity / %: 98
--
molecule: C=CC(=O)N1CCC[C@@H](n2nc(-c3ccc(Oc4ccccc4)cc3)c3c(N)ncnc32)C1
residual activity / %: 88
--
molecule: NC(=O)Nc1ccc2c(c1)/C(=C/c1cc(-c3cccnc3)c[nH]1)C(=O)N2
residual activity / %: 86
--
molecule: Cn1c(=O)c2c(ncn2C)n(C)c1=O
residual activity / %: 102
--
molecule: COc1cc(O)c2c(c1)[C@H]1OC1C[C@H](O)[C@H](O)C(=O)/C=C\C[C@H](C)OC2=O (stereo not given in full)
residual activity / %: 101
--
molecule: O=C(N[C@@H](COc1ccc2[nH]c(=O)[nH]c2c1)c1ccccc1)c1cccn(Cc2ccc(F)c(F)c2)c1=O
residual activity / %: 99
--
molecule: CCn1c(-c2nonc2N)nc2cncc(CNC3CCNCC3)c21
residual activity / %: 112
--
molecule: O=C(Nc1ccccc1-c1cn2c(CN3CCNCC3)csc2n1)c1cnc2ccccc2n1
residual activity / %: 90
--
molecule: NC(=O)c1cc2c(-c3cccc(-c4ccccc4)c3)cnc(N)c2s1
residual activity / %: 102
